- assay remarks: Drug distribution in Sprague-Dawley rat lung at 10 mg/kg, po measured after 8 hrs by LC-MS/MS analysis
- Format: ADME, organism-based
- protocol conditions: read-out: Drug uptake
assay readout: concentration at 8 h (ng/g)

INSERT INTO measurements (structure_notation, value_measured) VALUES
  ('COc1ccc(NS(=O)(=O)c2ccc(N3CCN(Cc4cccc([N+](=O)[O-])c4)CC3)c([N+](=O)[O-])c2)cn1', 527);

###

- System: J774.A1
- assay remarks: Anti-inflammatory activity in mouse J774.A1 cells assessed as inhibition of LPS-induced TNF-alpha production at 10 uM pre-stimulated with LPS for 24 hrs followed by compound addition and measured after 0.5 hrs by ELISA analysis relative to control
- Format: functional
inhibition at 10 µM listing for selected compounds.
assay readout: inhibition at 10 µM (%)

INSERT INTO assay_data (structure_notation, target_entity, value_measured) VALUES
  ('O=C(Nc1ccccc1)c1ccc(N2CCN(CCO)CC2)c([N+](=O)[O-])c1', 'J774.A1', 1.01),
  ('O=c1nc(-c2ccc(CN3CCN(c4ccc([N+](=O)[O-])cc4)CC3)cc2)cc(-c2ccccc2)[nH]1', 'J774.A1', 50.6),
  ('COc1ccc(NS(=O)(=O)c2ccc(N3CCN(c4ncccn4)CC3)c([N+](=O)[O-])c2)cn1', 'J774.A1', 22.3),
  ('COCCN1CCN(Cc2ccc(-c3nc4ccccc4c(=O)[nH]3)cc2)CC1', 'J774.A1', 22.6),
  ('O=c1nc(-c2ccc(CN3CCN(CCOCCO)CC3)cc2)cc(-c2ccccc2)[nH]1', 'J774.A1', 14.2),
  ('COCCN1CCN(c2ccc(S(=O)(=O)Nc3ccccc3)cc2[N+](=O)[O-])CC1', 'J774.A1', 16.9),
  ('O=C(Nc1cccc2ccccc12)c1ccc(N2CCN(Cc3cccc([N+](=O)[O-])c3)CC2)c([N+](=O)[O-])c1', 'J774.A1', 39.8),
  ('COc1ccc(-c2cc(-c3ccc(CN4CCN(c5ccc([N+](=O)[O-])cc5)CC4)cc3)nc(=O)[nH]2)cc1', 'J774.A1', 38.7),
  ('O=C(NCc1ccccn1)c1ccc(N2CCN(Cc3ccccc3)CC2)c([N+](=O)[O-])c1', 'J774.A1', 35.4),
  ('COCCN1CCN(Cc2ccc(-c3cc(-c4ccccc4)[nH]c(=O)n3)cc2)CC1', 'J774.A1', 25.6),
  ('COCCN1CCN(Cc2ccc(-c3cc(-c4ccc(Br)cc4)[nH]c(=O)n3)cc2)CC1', 'J774.A1', 41.1),
  ('O=c1nc(-c2ccc(CNc3nc4ccccc4s3)cc2)cc(-c2ccccc2)[nH]1', 'J774.A1', 53.3),
  ('O=c1nc(-c2ccc(CN3CCN(CCOCCO)CC3)cc2)cc(-c2ccc(Br)cc2)[nH]1', 'J774.A1', 22.6),
  ('CC(=O)N1CCN(Cc2ccc(-c3nc4ccccc4c(=O)[nH]3)cc2)CC1', 'J774.A1', 11.9),
  ('O=[N+]([O-])c1cc(S(=O)(=O)NCc2ccccn2)ccc1N1CCN(CCO)CC1', 'J774.A1', 6.63),
  ('COc1ccc(NS(=O)(=O)c2ccc(N3CCN(Cc4ccccc4)CC3)c([N+](=O)[O-])c2)cn1', 'J774.A1', 27.7),
  ('O=C(NCc1ccccn1)c1ccc(N2CCN(Cc3cccc([N+](=O)[O-])c3)CC2)c([N+](=O)[O-])c1', 'J774.A1', 27),
  ('COCCN1CCN(Cc2ccc(-c3cc(-c4ccc(OC)cc4)[nH]c(=O)n3)cc2)CC1', 'J774.A1', 40.8);
